Tested on: Staphylococcus aureus
Method summary: Antibacterial activity against Staphylococcus aureus 1199B assessed as reduction in bacterial growth incubated for 20 hrs by microplate reader method
Type: functional
Task for the reader: assign each of the following compounds its reported MIC.

Looking up `CCCC(=O)NC[C@H]1CN(c2ccc(N3CCOCC3)c(F)c2)C(=O)O1` , I found its MIC recorded as 8 µg/mL

Looking up `O=C(NC[C@H]1CN(c2ccc(N3CCOCC3)c(F)c2)C(=O)O1)c1cncs1` , I found its MIC recorded as 16 µg/mL

Looking up CN1CCC(C(=O)NC[C@H]2CN(c3ccc(N4CCOCC4)c(F)c3)C(=O)O2)C1 (some centres undefined) , I found its MIC recorded as > 128 µg/mL

Looking up `O=C(NC[C@H]1CN(c2ccc(N3CCOCC3)c(F)c2)C(=O)O1)c1cnc(Br)s1` , I found its MIC recorded as 32 µg/mL

Looking up `O=C(Cc1cccc2ccccc12)NC[C@H]1CN(c2ccc(N3CCOCC3)c(F)c2)C(=O)O1` , I found its MIC recorded as > 128 µg/mL

Looking up `Cn1cc([N+](=O)[O-])nc1C(=O)NC[C@H]1CN(c2ccc(N3CCOCC3)c(F)c2)C(=O)O1` , I found its MIC recorded as > 128 µg/mL

Looking up `O=C(NC[C@H]1CN(c2ccc(N3CCOCC3)c(F)c2)C(=O)O1)c1cc[nH]c1` , I found its MIC recorded as 64 µg/mL

Looking up `O=C(NC[C@H]1CN(c2ccc(N3CCOCC3)c(F)c2)C(=O)O1)c1cnco1` , I found its MIC recorded as 128 µg/mL

Looking up `O=C(NC[C@H]1CN(c2ccc(N3CCOCC3)c(F)c2)C(=O)O1)c1cc2ncccc2o1` , I found its MIC recorded as 16 µg/mL

Looking up `Cc1nc(Br)sc1C(=O)NC[C@H]1CN(c2ccc(N3CCOCC3)c(F)c2)C(=O)O1` , I found its MIC recorded as 16 µg/mL

Looking up `O=C(NC[C@H]1CN(c2ccc(N3CCOCC3)c(F)c2)C(=O)O1)c1cc2ccccc2[nH]1` , I found its MIC recorded as > 128 µg/mL

Looking up `Cc1ncsc1C(=O)NC[C@H]1CN(c2ccc(N3CCOCC3)c(F)c2)C(=O)O1` , I found its MIC recorded as 32 µg/mL

Looking up `O=C(NC[C@H]1CN(c2ccc(N3CCOCC3)c(F)c2)C(=O)O1)[C@H]1CCNC1` , I found its MIC recorded as > 128 µg/mL

Looking up `O=C(NC[C@H]1CN(c2ccc(N3CCOCC3)c(F)c2)C(=O)O1)C1CCC1` , I found its MIC recorded as 8 µg/mL

----------
System: Staphylococcus aureus
Method summary: Antibacterial activity against Staphylococcus aureus NCTC 13616 assessed as reduction in bacterial growth incubated for 20 hrs by microplate reader method
Type: functional
Task for the reader: assign each of the following molecules its reported MIC.
Reply numerically in mg/L, unit not repeated.

Looking up `CCC(=O)NC[C@H]1CN(c2ccc(N3CCOCC3)c(F)c2)C(=O)O1` , I found its MIC recorded as 4

Looking up `Cc1ncsc1C(=O)NC[C@H]1CN(c2ccc(N3CCOCC3)c(F)c2)C(=O)O1` , I found its MIC recorded as 16

Looking up `O=C(NC[C@H]1CN(c2ccc(N3CCOCC3)c(F)c2)C(=O)O1)c1cc[nH]c1` , I found its MIC recorded as 64

Looking up O=C(NC[C@H]1CN(c2ccc(N3CCOCC3)c(F)c2)C(=O)O1)C1CCCS1 (some centres undefined) , I found its MIC recorded as 32
